target: HCV NS3/4A protease (Hepatitis C virus genotype 1a); experiment: biochemical; conditions: full-length NS3 protease 1 nM, 25 μM NS4A cofactor, competitive inhibition model; read-out: Ki (nM) Enzymatic assay
propertyMeasured: Ki (nM)
One number for each entry, in nM.

Lookup: Return reported Ki. Input compound: "CN1CCCC/C=C\[C@@H]2C[C@@]2(C(=O)NS(=O)(=O)C2CC2)NC(=O)[C@@H]2C[C@@H](OC(=O)Nc3ccccc3F)C[C@H]2C1=O"
Found: 51
